Overview of recorded pKd for various binders
Target Or Test System: T1, rat α-CGRP (1-37) (rat, C-terminal amide; N-terminal biotin when captured on the SA chip)
T1 construct: also called rat α (1-37); α-rat
T1 peptide: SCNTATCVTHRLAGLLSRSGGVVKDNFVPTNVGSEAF
Measurement Notes: Biacore, 37°C, Fab over CGRP on SA chip
Lab note: report pKd as minus log10 of the concentration in molar units, number only.

Reference set, count: 4
G1 variant M59 Fab (Fab, V domains shown, Fab; constant domains as m1) VH: EVQLVESGGGLVQPGGSLRLSCAASGFTFSNYWISWVRQAPGKGLEWVAEIRSKSDNNATFYAEAVKGRFTISRDNAKNSLYLQMNSLRAEDTAVYYCTVYFDYGLAIQNYWGQGTLVTVSS VL: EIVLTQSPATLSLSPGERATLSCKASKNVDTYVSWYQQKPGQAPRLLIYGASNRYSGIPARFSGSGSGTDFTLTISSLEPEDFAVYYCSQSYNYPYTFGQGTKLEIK ... 6.17
G1 variant M27 Fab (Fab, V domains shown, Fab; constant domains as m1) VH: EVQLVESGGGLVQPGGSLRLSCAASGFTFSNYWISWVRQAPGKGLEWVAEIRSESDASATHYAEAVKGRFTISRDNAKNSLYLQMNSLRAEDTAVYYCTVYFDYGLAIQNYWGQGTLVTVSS VL: EIVLTQSPATLSLSPGERATLSCKASKNVATYVSWYQQKPGQAPRLLIYGASNRYLGIPARFSGSGSGTDFTLTISSLEPEDFAVYYCSQSYNYPYTFGQGTKLEIK ... 6.72
G1 variant M33 Fab (Fab, V domains shown, Fab; constant domains as m1) VH: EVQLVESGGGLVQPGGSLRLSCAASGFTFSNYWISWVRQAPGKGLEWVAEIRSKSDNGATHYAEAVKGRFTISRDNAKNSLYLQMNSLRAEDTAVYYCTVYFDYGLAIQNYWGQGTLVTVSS VL: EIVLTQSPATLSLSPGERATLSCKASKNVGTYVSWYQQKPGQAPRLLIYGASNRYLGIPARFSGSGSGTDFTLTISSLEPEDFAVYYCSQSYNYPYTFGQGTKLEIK ... 6.29
G1 variant M17 Fab (Fab, V domains shown, Fab; constant domains as m1) VH: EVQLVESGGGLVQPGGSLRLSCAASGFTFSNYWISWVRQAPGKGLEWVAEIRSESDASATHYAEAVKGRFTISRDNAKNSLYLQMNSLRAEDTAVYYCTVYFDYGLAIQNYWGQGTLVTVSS VL: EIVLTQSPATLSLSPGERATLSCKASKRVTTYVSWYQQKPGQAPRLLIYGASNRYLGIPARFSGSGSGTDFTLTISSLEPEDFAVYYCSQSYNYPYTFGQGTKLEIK ... 6.94

Here's the next entry for you.
q: Any idea what pKd was measured for G1 variant M3 Fab (Fab, V domains shown, Fab; constant domains as m1) VH: EVQLVESGGGLVQPGGSLRLSCAASGFTFSNYWISWVRQAPGKGLEWVAEIRSESDASATHYAEAVKGRFTISRDNAKNSLYLQMNSLRAEDTAVYYCASYFDYGLAIQNYWGQGTLVTVSS VL: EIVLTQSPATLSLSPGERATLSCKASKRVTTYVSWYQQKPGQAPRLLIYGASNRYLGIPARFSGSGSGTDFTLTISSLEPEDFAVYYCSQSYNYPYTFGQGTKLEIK ?
a: 7.21
